# IC50 listing for each entry below
tested on: Ba/F3 EML-ALK cells; test: Cytotoxicity assay (cell viability, CellTiter-Glo), Ba/F3 EML-ALK; type: cell-based; conditions: Mus musculus, BaF3, 72 h, read-out: Ba/F3 EML-ALK IC50

These recorded examples may help you get a feel for the data.
1) [2H]C([2H])([2H])N1CCN(c2ccc(C(=O)Nc3n[nH]c4ccc(Cc5cc(F)cc(F)c5)cc34)c(NC3CCOCC3)c2)CC1 [Compound T-1]; 50 to 150 nM
2) CN1CCN(c2ccc(C(=O)Nc3n[nH]c4ccc(Cc5cc(F)cc(F)c5)cc34)c(NC3CCOCC3)c2)CC1 [Entrectinib, reference compound]; 50 to 150 nM

Next item in the queue.
Lookup: IC50 lookup needed for [2H]C1([2H])N(C)C([2H])([2H])C([2H])([2H])N(c2ccc(C(=O)Nc3n[nH]c4ccc(Cc5cc(F)cc(F)c5)cc34)c(NC3CCOCC3)c2)C1([2H])[2H] [Compound T-2] , thanks.
Found: 50 to 150 nM

The reported measurements were obtained from patent US11267806B2.
